System: human colorectal cancer cell line HT29
test: cells
Assay type: cell-based
experimental_parameters: Homo sapiens, HT-29, 48 h, read-out: IC50 Colorectal cancer HT-29
measurement_type: IC50 (µM)
// note: answer is a bare numeric in µM

IC50 for CCOC(=O)c1nn(O)c2c(=O)n(C3OC(COC(C(=O)O)P(NC(C)C)OCC#N)C(O)C3O)nnc12 (stereo not shown) is 2.68

----------
Tested on: human breast cancer cell line MCF7
test: cells
Type: cell-based
experimental_parameters: MCF7, MTT, 48 hours, unit inferred, read-out: IC50 with 95% confidence limits, MCF7 cells
measurement_type: pIC50
Field pIC50 (float): negative decimal logarithm of the concentration in molar.

pIC50 for Nc1nn(O)c2c(=O)n(C3OC(CO)C(O)C3O)nnc12 (centres unmarked) is 5.56

pIC50 for Nc1nn(O)c2c(=O)n(C3CSC(CO)O3)nnc12 (centres unmarked) is 4.17

pIC50 for CCCc1nn(C)c2c(=O)n(C3OC(COP(=O)(O)OP(=O)(O)OP(=O)(O)O)C(O)C3O)nnc12 (centres unmarked) is 5.24

pIC50 for CCOC(=O)c1nn(CO)c2c(=O)n(C3OC3CO)nnc12 (centres unmarked) is 5.21

pIC50 for CCCc1nn(C(C(=O)O)P(=O)(OCC)OCC)c2c(=O)n(C3CCC(CO)O3)nnc12 (centres unmarked) is 4.46
